settings: cynomolgus monkey, in vivo, iv, 2 mg/kg
Give measured AUCinf for each item. Keep answers brief.
# value in µg·h/mL; strip the unit string

The molecule 12A2_sv1-AAA-12A2_sv1-9GS-59C2 (protein) DVQLVESGGGLVQPGGSLRLSCAASGRTFSYNPMGWFRQAPGKGRELVAAISRTGGSTYYPESVEGRFTISRDNAKRTVYLQMNSLRAEDTAVYYCAAAGVRAEQGRVRTLPSEYTFWGQGTQVTVSSAAAEVQLVESGGGLVQPGGSLRLSCAASGRTFSYNPMGWFRQAPGKGRELVAAISRTGGSTYYPESVEGRFTISRDNAKRTVYLQMNSLRAEDTAVYYCAAAGVRAEQGRVRTLPSEYTFWGQGTQVTVSSGGGGSGGGSRDWDFDVFGGGTPVGG showed AUCinf equal to 1590

For this molecule ( 12A2_sv1-AAA-12A2_sv1 (protein) DVQLVESGGGLVQPGGSLRLSCAASGRTFSYNPMGWFRQAPGKGRELVAAISRTGGSTYYPESVEGRFTISRDNAKRTVYLQMNSLRAEDTAVYYCAAAGVRAEQGRVRTLPSEYTFWGQGTQVTVSSAAAEVQLVESGGGLVQPGGSLRLSCAASGRTFSYNPMGWFRQAPGKGRELVAAISRTGGSTYYPESVEGRFTISRDNAKRTVYLQMNSLRAEDTAVYYCAAAGVRAEQGRVRTLPSEYTFWGQGTQVTVSS ), measured AUCinf is 62.6

Per the record, 12A2_sv1-9GS-59C2-9GS-12A2_sv1 (protein) DVQLVESGGGLVQPGGSLRLSCAASGRTFSYNPMGWFRQAPGKGRELVAAISRTGGSTYYPESVEGRFTISRDNAKRTVYLQMNSLRAEDTAVYYCAAAGVRAEQGRVRTLPSEYTFWGQGTQVTVSSGGGGSGGGSRDWDFDVFGGGTPVGGGGGGSGGGSEVQLVESGGGLVQPGGSLRLSCAASGRTFSYNPMGWFRQAPGKGRELVAAISRTGGSTYYPESVEGRFTISRDNAKRTVYLQMNSLRAEDTAVYYCAAAGVRAEQGRVRTLPSEYTFWGQGTQVTVSS has AUCinf of 1320
